Tested on: Human betaherpesvirus 5
TEST_METHOD_NOTES: Antiviral activity against HCMV TB40/E infected in human NHDF cells assessed as reduction in infectious virus titer compound added 2 hpi and measured after 96 hpi by inverted microscopic analysis
DETAILS: Human betaherpesvirus 5, TB40/E
Label rule met when IC50 is strictly below 0.03 µM; at or above that, label rule not met.

> print(dat)
                                   molecule             study.target         group
1  Cc1nc(-c2ccc(C3N(C)c4ccccc4C(=O)N3c3ccccc3)s2)cs1 (stereo unspecified)  Human betaherpesvirus 5  rule not met
2  Cc1nc(-c2ccc(C3N(C)c4ccc(C#N)cc4C(=O)N3c3ccccc3)s2)cs1 (stereo unspecified)  Human betaherpesvirus 5  rule not met
3  Cc1nc(-c2ccc(C3N(C)c4ccc([N+](=O)[O-])cc4C(=O)N3c3ccccc3)s2)cs1 (stereo unspecified)  Human betaherpesvirus 5      rule met
4  Cc1nc(-c2ccc(C3Nc4ccc([N+](=O)[O-])cc4C(=O)N3c3ccccc3)s2)cs1 (stereo unspecified)  Human betaherpesvirus 5  rule not met
5  Cc1nc(-c2ccc(C3Nc4ccc(C#N)cc4C(=O)N3c3ccccc3)s2)cs1 (stereo unspecified)  Human betaherpesvirus 5  rule not met
6  Cc1nc(-c2ccc(C3N(C)c4ccc(F)cc4C(=O)N3c3ccccc3)s2)cs1 (stereo unspecified)  Human betaherpesvirus 5      rule met

----------
Tested on: Vero
TEST_METHOD_NOTES: Cytotoxicity in African green monkey VERO cells assessed as cell viability at 100 nM incubated for 96 hrs by CellTiter-Glo Luminescent assay
Type: cell-based
DETAILS: chlorocebus sabaeus, 0.1 µM
PROPERTY_LABEL: Activity

> print(dat)
                                   molecule  study.target   observed
1  Cc1nc(-c2ccc(C3N(C)c4ccc([N+](=O)[O-])cc4C(=O)N3c3ccccc3)s2)cs1 (centres undefined)          Vero  Non-Toxic
2  Cc1nc(-c2ccc(C3Nc4ccc(C#N)cc4C(=O)N3c3ccccc3)s2)cs1 (centres undefined)          Vero  Non-Toxic
3  Cc1nc(-c2ccc(C3Nc4ccc([N+](=O)[O-])cc4C(=O)N3c3ccccc3)s2)cs1 (centres undefined)          Vero  Non-Toxic
4  Cc1nc(-c2ccc(C3N(C)c4ccc(C#N)cc4C(=O)N3c3ccccc3)s2)cs1 (centres undefined)          Vero  Non-Toxic

----------
System: ARPE-19
TEST_METHOD_NOTES: Cytotoxicity in human ARPE-19 cells assessed as cell viability at 10 uM incubated for 96 hrs by CellTiter-Glo Luminescent assay
Type: cell-based
DETAILS: arpe-19, 96 h
PROPERTY_LABEL: Activity

> print(dat)
                                   compound  property.label  observed
1  Cc1nc(-c2ccc(C3Nc4ccc([N+](=O)[O-])cc4C(=O)N3c3ccccc3)s2)cs1 (centres undefined)        Activity     Toxic
2  Cc1nc(-c2ccc(C3N(C)c4ccc([N+](=O)[O-])cc4C(=O)N3c3ccccc3)s2)cs1 (centres undefined)        Activity     Toxic
3  Cc1nc(-c2ccc(C3Nc4ccc(C#N)cc4C(=O)N3c3ccccc3)s2)cs1 (centres undefined)        Activity     Toxic
4  Cc1nc(-c2ccc(C3N(C)c4ccc(C#N)cc4C(=O)N3c3ccccc3)s2)cs1 (centres undefined)        Activity     Toxic

Entry source: ChEMBL document CHEMBL4665637
